# System: NCI/ADR-RES ovarian
# Assay Text: NCI-60 one-dose screen, 48 h (100 = growth as untreated, 0 = no growth, -100 = all killed)
# Cond: 10 µM unless noted
This is part of a sample that, as a whole, favours compounds with a hit. Of some 83,000 tested, about 20% had one in any assay.
Items are presented alongside their recorded growth.
Numbers only; they are read as %.

Past entries and their recorded results:
COc1ccc(-c2nc3sccn3c2-c2ccnc(NCCCNS(=O)(=O)c3ccc4ccccc4c3)n2)cc1 = 53.5
CCN(CC)CCSc1c2ccc(Cl)cc2nc2ccc(OC)cc12 = 105
CCOC(=O)c1cc(/C(=N\O)c2cc(OC)c(OC)c(OC)c2)n2cc(C)cc(C)c12 = 22.6
CCC(C)NCC(=O)O (stereo not drawn) = 110
COc1cccc(NC(=O)Cn2cc3c(=O)oc4ccccc4c3n2)c1 = 100

### Prompt // query growth value for entry C=C1C(=O)O[C@H]2[C@H](O)[C@@H](C)CCC/C(C)=C/CC[C@@]3(C)O[C@@H]3C[C@@H]12
### Response 97.6

### Prompt // query growth value for entry CCN(C(=O)c1cc2ccccc2[nH]1)[C@H]1CCC[C@@H](NCc2ccc(OC)cc2)C1
### Response 88.4

### Prompt // query growth value for entry CC(Br)C(Br)c1cc2c(cc1Br)OCO2 (stereo not drawn)
### Response 99.1
